Each entry below carries its recorded Ratio CC50/IC50.
ASSAY TEXT: Selectivity index, ratio of CC50 for human TZM-bl cells to IC50 for HIV-1 3B infected in human TZM-bl cells
Assay type: toxicity, cell-based
Reply with just the number.

COMPOUND: Cc1cc2c(c(O)c1-c1c(C)cc3c(c1O)/C(=C/NCC(=O)NCC(=O)NCC(=O)[O-])C(=O)C(O)=C3C(C)C)/C(=C/NCC(=O)NCC(=O)NCC(=O)[O-])C(=O)C(O)=C2C(C)C.[Na+].[Na+] (stereo in doubt; (+)-6b)
Ratio CC50/IC50: 9.42

Using the record for Cc1cc2c(c(O)c1-c1c(C)cc3c(c1O)/C(=C/NC(C)C(=O)NC(C)C(=O)NC(C)C(=O)[O-])C(=O)C(O)=C3C(C)C)/C(=C/NC(C)C(=O)NC(C)C(=O)NC(C)C(=O)[O-])C(=O)C(O)=C2C(C)C.[Na+].[Na+] (single isomer, unassigned; (+)) , state its measured Ratio CC50/IC50. 9.19

Using the record for CC[C@H](C)[C@H](N/C=C1\C(=O)C(O)=C(C(C)C)c2cc(C)c(-c3c(C)cc4c(c3O)/C(=C/N[C@H](C(=O)[O-])[C@@H](C)CC)C(=O)C(O)=C4C(C)C)c(O)c21)C(=O)[O-].[Na+].[Na+] (stereo in doubt; (-)-11a) , state its measured Ratio CC50/IC50. 132.29

Using the record for Cc1cc2c(c(O)c1-c1c(C)cc3c(c1O)/C(=C/NC(C)C(=O)NC(Cc1ccccc1)C(=O)[O-])C(=O)C(O)=C3C(C)C)/C(=C/NC(C)C(=O)NC(Cc1ccccc1)C(=O)[O-])C(=O)C(O)=C2C(C)C.[Na+].[Na+] (stereo in doubt; (+)-5b) , state its measured Ratio CC50/IC50. 7.97

###

ASSAY TEXT: Cytotoxicity against human TZM-bl cells after 72 hrs by MTT assay
Type: cell-based
CONDITION PARAMETERS: TZM-bl cells
READOUT LABEL: CC50 at 72 h

These solved cases illustrate the format of a correct answer.
MOLECULE: Cc1cc2c(c(O)c1-c1c(C)cc3c(c1O)/C(=C/NC(C)C(=O)NC(C)C(=O)[O-])C(=O)C(O)=C3C(C)C)/C(=C/NC(C)C(=O)NC(C)C(=O)[O-])C(=O)C(O)=C2C(C)C.[Na+].[Na+] (stereo in doubt; (+)-3b)
CC50 at 72 h: 59.5 µM
--
MOLECULE: Cc1cc2c(c(O)c1-c1c(C)cc3c(c1O)/C(=C/N[C@@H](CC(C)C)C(=O)[O-])C(=O)C(O)=C3C(C)C)/C(=C/N[C@@H](CC(C)C)C(=O)[O-])C(=O)C(O)=C2C(C)C.[Na+].[Na+] (stereo in doubt; (+)-10b)
CC50 at 72 h: 60.1 µM
--
MOLECULE: Cc1cc2c(c(O)c1-c1c(C)cc3c(c1O)/C(=C/NC(C)C(=O)NCC(=O)[O-])C(=O)C(O)=C3C(C)C)/C(=C/NC(C)C(=O)NCC(=O)[O-])C(=O)C(O)=C2C(C)C.[Na+].[Na+] (single isomer, unassigned; (+))
CC50 at 72 h: 61.1 µM

Switching to the query record.
Using the record for Cc1cc2c(c(O)c1-c1c(C)cc3c(c1O)/C(=C/NC(C)C(=O)NC(C)C(=O)NC(C)C(=O)[O-])C(=O)C(O)=C3C(C)C)/C(=C/NC(C)C(=O)NC(C)C(=O)NC(C)C(=O)[O-])C(=O)C(O)=C2C(C)C.[Na+].[Na+] (single isomer, unassigned; (+)) , state its measured CC50 at 72 h. 58.7 µM
